# System: Vero cells
# applied_conditions: African green monkey
value_kind: CC50

Working through the 2 compounds below one at a time, give CC50 for each.
1. CC(=O)OCCC1=C[C@H](OC(C)=O)[C@@H](OC(C)=O)[C@H]2c3cc4c(cc3CN(C(=O)OCC(Cl)(Cl)Cl)[C@H]12)OCO4 [Compound 1194]
2. O[C@H]1[C@H]2c3cc4c(cc3CN3CCC(=C[C@@H]1O)[C@H]23)OCO4 [Lycorine]

Reply |
> 300 µM
24 µM

For every record below, what is its CC50?
1. CC(=O)O[C@H]1[C@H]2c3cc4c(cc3CN(C(=O)OCC(Cl)(Cl)Cl)[C@@H]2C(CCCl)=C[C@@H]1OC(C)=O)OCO4 [Compound 1193]
2. CC(=O)O[C@H]1[C@H]2c3cc4c(cc3C(=O)N3CCC(=C[C@@H]1OC(C)=O)[C@H]23)OCO4 [Compound 1197]
3. CC(=O)O[C@@H]1C(=O)C=C2CCN3Cc4cc5c(cc4[C@H]1[C@@H]23)OCO5 [Compound 1200]

Reply |
> 300 µM
> 300 µM
> 300 µM
